Reference for the values: patent US20040214902A1

EXPERIMENTAL_SYSTEM: 46-kDa soluble recombinant GST-fused Bcl-2 protein (Santa Cruz Biotechnology) (human) (UniProt P10415)
RUN_DESCRIPTION: fluorescence polarization saturation binding
No end group written: not given here. *: point of attachment. 6FAM = O=C1OC2(c3ccc(O)cc3Oc3cc(O)ccc32)c2cc(C(=O)*)ccc21
READOUT_TYPE: Kd (nM)

> print(dat)
                           binder  test.result
1  6FAM-NLWAAQRYGRELRRMSDEFVDSFKK          6.9
